The measurements presented in this section are drawn from patent US5936097A.

target-under-test: human farnesyl transferase (Homo sapiens, UniProt P49354+P49356)
Construct: human farnesyl transferase purified from THP1 cell cultures; endogenous in cells; host or cells: THP1 cell cultures (enzyme purified from the cells)
protocol: inhibition of farnesyl transferase ((3H) farnesyl transfer from (3H) FPP to p21 H-ras)
Type: biochemical
condition-info: human farnesyl transferase purified from THP1 cell cultures; p21 H-ras substrate; 20 minutes at 37° C.; 9 concentrations; read-out: in vitro inhibitory activity IC50
Consider the following molecules and their measured pIC50 readings.
// pIC50 is dimensionless: -log10 of concentration (M)

Please give the measured pIC50 for this molecule: COc1ccccc1CC(=O)N1C[C@H]2[C@@]3(c4ccccc4)CC[C@H](c4ccccc43)[C@@]2(C(N)=O)C1 (relative stereo)
5.33

Please give the measured pIC50 for this molecule: "C=C(C(=O)N1C[C@H]2[C@@]3(c4ccccc4)CC[C@H](c4ccccc43)[C@@]2(C(=O)NCc2ccccc2)C1)c1ccccc1OC"
6.30

Please give the measured pIC50 for this molecule: COc1ccccc1CC(=O)N1C[C@H]2[C@@]3(c4ccccc4)CC[C@H](c4ccccc43)[C@@]2(C(=O)N(C)OC)C1 (relative stereo)
5.65

More entries:
Please give the measured pIC50 for this molecule: "C=C(C(=O)N1C[C@H]2[C@@]3(c4ccccc4)CC[C@H](c4ccccc43)[C@@]2(C(=O)N[C@H](CO)c2ccccc2)C1)c1ccccc1OC"
6.59

Please give the measured pIC50 for this molecule: O=C(Cc1ccccc1OCCCN1CCCC1)N1C[C@H]2[C@@]3(c4ccccc4)CC[C@H](c4ccccc43)[C@@]2(C(=O)O)C1 (relative stereo)
5.88

Please give the measured pIC50 for this molecule: COc1ccccc1CC(=O)N1C[C@@H]2[C@]3(c4ccccc4)CC[C@@H](c4ccccc43)[C@]2(C(=O)NO)C1 (racemic)
5.90
